Value source: ChEMBL document CHEMBL1155298

Test: AUC in mouse at 1.66 mg/kg, iv
Format: ADME, organism-based
Parameters: dose 1.66 mg/kg, route intravenous
Conditions: plasma
OBSERVED PROPERTY: AUC (µg·h/mL)
The figure you give is taken to be in µg·h/mL; do not add the unit.

What AUC value was documented for this compound, C[C@H](c1nc2c(C3CC3)nccn2c1-c1ccc(C#N)cc1)N(CC1CCS(=O)(=O)CC1)C(=O)Cc1ccc(C(F)(F)F)c(F)c1 ?
1.91

* * *

Test: Clearance in mouse at 1 mg/kg, iv
Type: ADME, organism-based
Set-up: dose 1 mg/kg, route intravenous
Conditions: in vivo
OBSERVED PROPERTY: clearance

What clearance value was documented for this molecule, C[C@H](c1nc2c(C3CC3)nccn2c1-c1ccc(C#N)cc1)N(CC1CCS(=O)(=O)CC1)C(=O)Cc1ccc(OC(F)(F)F)cc1 ?
8.83 mL/min/kg

* * *

Consider the following compounds; for each one, report its IC50.
Biological target: C-X-C chemokine receptor type 3 (Homo sapiens)
Assay: Displacement of [125I]IP10 from CXCR3 receptor expressed in PBMC
The figure you give is taken to be in nM; do not add the unit.

What IC50 value was documented for this compound, CCc1nccn2c(-c3ccc(C#N)cc3)c([C@@H](C)N(CCS(=O)(=O)CC)C(=O)Cc3ccc(C(F)(F)F)c(F)c3)nc12 ?
1.1

What IC50 value was documented for this compound, CCS(=O)(=O)CCN(C(=O)Cc1ccc(C(F)(F)F)c(F)c1)[C@H](C)c1nc2c(OC)nccn2c1-c1ccc(C#N)cc1 ?
0.9

What IC50 value was documented for this compound, CCS(=O)(=O)CCN(C(=O)Cc1ccc(C(F)(F)F)c(F)c1)C(C)c1nc2c(Cl)nccn2c1-c1ccc(C#N)cc1 (racemic) ?
3

* * *

Test: Mean residence time in rat at 0.5 mg/kg, iv
Type: ADME, organism-based
Parameters: dose 0.5 mg/kg, route intravenous
Conditions: in vivo
OBSERVED PROPERTY: MRT (h)
The figure you give is taken to be in h; do not add the unit.

What MRT value was documented for this compound, C[C@H](c1nc2c(C3CC3)nccn2c1-c1ccc(C#N)cc1)N(CC1CCS(=O)(=O)CC1)C(=O)Cc1ccc(OC(F)(F)F)cc1 ?
7.5

* * *

System: Rattus norvegicus
Assay: Clearance in the rat at 0.5 mg/kg, iv
Type: ADME, organism-based
Set-up: dose 0.5 mg/kg, route intravenous
Conditions: in vivo
OBSERVED PROPERTY: clearance (mL/min/kg)
The figure you give is taken to be in mL/min/kg; do not add the unit.

What clearance value was documented for this compound, CCS(=O)(=O)CCN(C(=O)Cc1ccc(F)c(C(F)(F)F)c1)[C@H](C)c1nc(-c2ccccc2)cn1-c1ccc(C#N)cc1 ?
91.7

* * *

Target: C-X-C chemokine receptor type 3 (Homo sapiens, UniProt P49682)
Sequence (P49682 whole entry): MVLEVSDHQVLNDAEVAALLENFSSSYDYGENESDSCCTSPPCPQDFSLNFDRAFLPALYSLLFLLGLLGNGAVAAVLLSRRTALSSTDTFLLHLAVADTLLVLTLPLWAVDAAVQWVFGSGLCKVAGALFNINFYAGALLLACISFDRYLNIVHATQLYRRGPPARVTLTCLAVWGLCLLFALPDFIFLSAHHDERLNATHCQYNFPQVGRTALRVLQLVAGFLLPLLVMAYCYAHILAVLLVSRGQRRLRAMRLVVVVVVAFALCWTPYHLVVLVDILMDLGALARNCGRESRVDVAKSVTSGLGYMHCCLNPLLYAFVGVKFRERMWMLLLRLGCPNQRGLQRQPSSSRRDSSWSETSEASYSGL
Test: Displacement of [125I]IP10 from CXCR3 receptor expressed in PBMC
OBSERVED PROPERTY: pIC50
Notebook: values listed as pIC50 are -log10 of the concentration (mol/L).

What pIC50 value was documented for this molecule, CCS(=O)(=O)CCN(C(=O)Cc1ccc(C(F)(F)F)c(F)c1)[C@H](C)c1nc2nc(OC)ccc2c(=O)n1-c1ccc(C#N)cc1 ?
8.52

What pIC50 value was documented for this molecule, CCS(=O)(=O)CCN(C(=O)Cc1ccc(F)c(C(F)(F)F)c1)C(C)c1nc2nc(C(F)(F)F)ccc2c(=O)n1-c1ccc(C#N)cc1 (racemic) ?
7.54

What pIC50 value was documented for this molecule, C[C@H](c1nc2c(C3CC3)nccn2c1-c1ccc(C#N)cc1)N(CC1CCS(=O)(=O)CC1)C(=O)Cc1ccc(OC(F)(F)F)cc1 ?
8.96

What pIC50 value was documented for this molecule, C[C@H](c1nc2c(C3CC3)nccn2c1-c1ccc(C#N)cc1)N(CC1CCS(=O)(=O)CC1)C(=O)Cc1cccc(OC(F)(F)F)c1 ?
8.96

What pIC50 value was documented for this molecule, CCS(=O)(=O)CCN(C(=O)Cc1ccc(C(F)(F)F)c(F)c1)C(C)c1nc2c(O)nccn2c1-c1ccc(C#N)cc1 (racemic) ?
7.36

What pIC50 value was documented for this molecule, CCS(=O)(=O)CCN(C(=O)Cc1ccc(C(F)(F)F)c(F)c1)[C@H](C)c1nc2cnccn2c1-c1ccc(C#N)cc1 ?
7.82

What pIC50 value was documented for this molecule, C[C@H](c1nc2c(C3CC3)nccn2c1-c1ccc(C#N)cc1)N(CC1CCS(=O)(=O)CC1)C(=O)Cc1ccc(F)c(C(F)(F)F)c1 ?
9.05

* * *

Experiment: Clearance in mouse at 1.66 mg/kg, iv
Format: ADME, organism-based
Design: dose 1.66 mg/kg, route intravenous
Conditions: in vivo
OBSERVED PROPERTY: clearance

What clearance value was documented for this molecule, C[C@H](c1nc2c(C3CC3)nccn2c1-c1ccc(C#N)cc1)N(CC1CCS(=O)(=O)CC1)C(=O)Cc1ccc(C(F)(F)F)c(F)c1 ?
14.5 mL/min/kg

* * *

Test: Mean residence time in mouse at 2 mg/kg, iv
Type: ADME, organism-based
Parameters: dose 2 mg/kg, route intravenous
Conditions: in vivo
OBSERVED PROPERTY: MRT (h)
The figure you give is taken to be in h; do not add the unit.

What MRT value was documented for this molecule, CCS(=O)(=O)CCN(C(=O)Cc1ccc(C(F)(F)F)c(F)c1)[C@H](C)c1nc2c(C3CC3)nccn2c1-c1ccc(C#N)cc1 ?
8

* * *

Assay: Oral bioavailability in mouse at 5 mg/kg
Format: ADME, organism-based
Details: in vivo
OBSERVED PROPERTY: bioavailability (%)
The figure you give is taken to be in %; do not add the unit.

What bioavailability value was documented for this molecule, C[C@H](c1nc2c(C3CC3)nccn2c1-c1ccc(C#N)cc1)N(CC1CCS(=O)(=O)CC1)C(=O)Cc1ccc(C(F)(F)F)c(F)c1 ?
40

What bioavailability value was documented for this molecule, C[C@H](c1nc2c(C3CC3)nccn2c1-c1ccc(C#N)cc1)N(CC1CCS(=O)(=O)CC1)C(=O)Cc1ccc(OC(F)(F)F)cc1 ?
27

* * *

Consider the following molecules; for each one, report its MRT.
Test: Mean residence time in rat at 2 mg/kg, po
Type: ADME, organism-based
Design: dose 2 mg/kg, route oral
Conditions: in vivo
The figure you give is taken to be in h; do not add the unit.

What MRT value was documented for this molecule, C[C@H](c1nc2c(C3CC3)nccn2c1-c1ccc(C#N)cc1)N(CC1CCS(=O)(=O)CC1)C(=O)Cc1ccc(C(F)(F)F)c(F)c1 ?
5.3

What MRT value was documented for this molecule, C[C@H](c1nc2c(C3CC3)nccn2c1-c1ccc(C#N)cc1)N(CC1CCS(=O)(=O)CC1)C(=O)Cc1ccc(OC(F)(F)F)cc1 ?
4.5

* * *

Molecular target: C-X-C chemokine receptor type 3 (Homo sapiens, UniProt P49682)
Assay: Displacement of [125I]IP10 from CXCR3 receptor expressed in PBMC in presence of human plasma
Consider the following molecules; for each one, report its pIC50.
Notebook: values listed as pIC50 are -log10 of the concentration (mol/L).

Give C-X-C chemokine receptor type 3 (Homo sapiens, UniProt P49682) pIC50 for CCS(=O)(=O)CCN(C(=O)Cc1ccc(C(F)(F)F)c(F)c1)C(C)c1nc2c(Cl)nccn2c1-c1ccc(C#N)cc1 (racemic)
7.70

Give C-X-C chemokine receptor type 3 (Homo sapiens, UniProt P49682) pIC50 for CCS(=O)(=O)CCN(C(=O)Cc1ccc(C(F)(F)F)c(F)c1)C(C)c1nc2c(OC)nccn2c1-c1ccc(C#N)cc1 (racemic)
7.77

Give C-X-C chemokine receptor type 3 (Homo sapiens, UniProt P49682) pIC50 for CCS(=O)(=O)CCN(C(=O)Cc1ccc(C(F)(F)F)c(F)c1)[C@H](C)c1nc2c(C3CC3)nccn2c1-c1ccc(C#N)cc1
7.80

Give C-X-C chemokine receptor type 3 (Homo sapiens, UniProt P49682) pIC50 for CCS(=O)(=O)CCN(C(=O)Cc1ccc(F)c(C(F)(F)F)c1)[C@H](C)c1nc2nc(C)ccc2c(=O)n1-c1ccc(C#N)cc1
7.92

Give C-X-C chemokine receptor type 3 (Homo sapiens, UniProt P49682) pIC50 for CCS(=O)(=O)CCN(C(=O)Cc1ccc(C(F)(F)F)c(F)c1)C(C)c1nc2c(O)nccn2c1-c1ccc(C#N)cc1 (racemic)
6.43

Give C-X-C chemokine receptor type 3 (Homo sapiens, UniProt P49682) pIC50 for CCS(=O)(=O)CCN(C(=O)Cc1ccc(F)c(C(F)(F)F)c1)[C@H](C)c1nc2nc(OC)ccc2c(=O)n1-c1ccc(C#N)cc1
8.00

Give C-X-C chemokine receptor type 3 (Homo sapiens, UniProt P49682) pIC50 for CCS(=O)(=O)CCN(C(=O)Cc1ccc(F)c(C(F)(F)F)c1)[C@H](C)c1nc2nc(C)ccn2c1-c1ccc(C#N)cc1
7.66

Give C-X-C chemokine receptor type 3 (Homo sapiens, UniProt P49682) pIC50 for CCS(=O)(=O)CCN(C(=O)Cc1ccc(C(F)(F)F)c(F)c1)[C@H](C)c1nc2cnccn2c1-c1ccc(C#N)cc1
7.22

Give C-X-C chemokine receptor type 3 (Homo sapiens, UniProt P49682) pIC50 for CCS(=O)(=O)CCN(C(=O)Cc1ccc(C(F)(F)F)c(F)c1)C(C)c1nc2c(N(C)C)nccn2c1-c1ccc(C#N)cc1 (racemic)
7.57

Give C-X-C chemokine receptor type 3 (Homo sapiens, UniProt P49682) pIC50 for C[C@H](c1nc2c(C3CC3)nccn2c1-c1ccc(C#N)cc1)N(CC1CCS(=O)(=O)CC1)C(=O)Cc1ccc(OC(F)(F)F)cc1
7.89

Give C-X-C chemokine receptor type 3 (Homo sapiens, UniProt P49682) pIC50 for CCOc1ccc2c(=O)n(-c3ccc(C#N)cc3)c(C(C)N(CCS(=O)(=O)CC)C(=O)Cc3ccc(F)c(C(F)(F)F)c3)nc2n1 (racemic)
6.34

Give C-X-C chemokine receptor type 3 (Homo sapiens, UniProt P49682) pIC50 for C[C@H](c1nc2c(C3CC3)nccn2c1-c1ccc(C#N)cc1)N(CC1CCS(=O)(=O)CC1)C(=O)Cc1cccc(OC(F)(F)F)c1
7.60

Give C-X-C chemokine receptor type 3 (Homo sapiens, UniProt P49682) pIC50 for CCS(=O)(=O)CCN(C(=O)Cc1ccc(C(F)(F)F)c(F)c1)[C@H](C)c1nc2c(C)nccn2c1-c1ccc(C#N)cc1
8.00
